Where do these numbers come from? They come from patent US20220380371A1.

Tested on: MV4-11 cells
TEST: MV4-11 6-Day Cell Growth CTG (CellTiter-Glo) Assay
Assay type: cell-based
RUN CONDITIONS: Homo sapiens, MV4-11, 144 h, MV4-11 cell growth CellTiter-Glo, 6 days
IC50 values, listed per item

Look over these answered cases.
| COMPOUND | RESULT |
| --- | --- |
| Nc1ncnc2c1ncn2Cc1c(Br)c(Cl)c2c(c1N1CC[C@](N)(C(=O)NC3CC3)C1)OCC2 | < 2000 nM |
| N#CC1CCN(C(=O)[C@@]2(N)CCN(c3ccc(F)c(C(F)(F)F)c3Cn3cnc4c(N)ncnc43)C2)C1 (stereo partly shown) | < 2000 nM |
| Nc1ncnc2c1ncn2Cc1c(N2CC[C@](N)(C(=O)NC3CC3)C2)ccc(F)c1CN1C[C@H]2CC[C@@H](C1)O2 | < 2000 nM |
| Nc1ncnc2c1ncn2Cc1c(N2CC[C@](N)(C(=O)NC3CC3)C2)ccc(F)c1CC(F)(F)F | < 2000 nM |
| Nc1ncnc2c1ncn2Cc1c(N2CCC(N)(C(=O)NC3CC3)C2)ccc(C(F)(F)F)c1Cl (stereo not shown) | < 2000 nM |
| Nc1ncnc2c1ncn2Cc1c(Br)c(Cl)cc(Cl)c1N1CC[C@](N)(C(=O)NC2CC2)C1 | < 2000 nM |

Shifting focus to the compound that follows.
Item under review: [2H]C([2H])([2H])OCc1c(Cl)ccc(N2CC[C@](N)(C(=O)NC3CC3)C2)c1Cn1cnc2c(N)ncnc21 . Reported IC50?
< 2000 nM
